Please provide measured GI50 for the entries that follow.
test system: SK-OV-3; assay: NCI tumour cell line growth inhibition, 48 h
Activity calls are given as the source filed them. No stated cut-off is given here; in the data, active = GI50 up to about 1.1 µM and inactive = higher.

CCOC(=O)CCC(NC(=O)OCc1ccccc1)C(=O)NNC(=O)OC(C)(C)C (stereo not drawn) ... > 100 µM (inactive)
COc1ccc(/C(C)=N/NC(N)=S)c(OC)c1 ... > 100 µM (inactive)

// query Can you look up the measured GI50 of O=C1OC(=O)C23CSCC12C1C=CC3O1 (stereo not drawn) for me?
// result > 100 µM (inactive)

----------
test system: OVCAR-3; assay: NCI tumour cell line growth inhibition, 48 h
Activity calls are given as the source filed them. No stated cut-off is given here; in the data, active = GI50 up to about 1.1 µM and inactive = higher.
// one of yes (active), no (inactive), no free text

Nc1ccc(Oc2ccc(C3(c4ccc(Oc5ccc(N)c(O)c5)cc4)C4CC5C6CC7CC5C3C(C7)C6C4)cc2)cc1O ... no
O=C1NC(NCc2ccc(F)cc2)=N/C1=C\c1ccccc1Cl ... no
N#CC(C#N)=CSc1ccccc1 ... no
COC(=O)[C@]1(c2cc3ccccc3n2S(=O)(=O)c2ccccc2)CC2CN(C(C)=O)C1CC2=O (stereo partly specified) ... no
CC1(C)OC2C(CO)OC(n3ccc(=O)[nH]c3=O)C2O1 (stereo unspecified) ... no

// query Dear all, I need the recorded test outcome for O=[N+]([O-])c1ccc(/C=N/C23CC4CC(CC(C4)C2)C3)cc1 , thank you.
// result no

// query # lookup: test call for O=C(NC(Cc1ccc(Cl)cc1)C(=O)O)c1ccc(I)cc1 (stereo unspecified)
// result no

// query Just curious, what result did O=C1c2c(c3c4ccccc4n(CC4CO4)c3c3[nH]c4ccccc4c23)C(=O)N1Cc1ccccc1 (stereo unspecified) get here?
// result no

// query Outcome? OC1(c2ccc(Cl)cc2)c2ccccc2-c2nc3ccccc3n21 (stereo unspecified)
// result no

// query Hello, I am checking results. What call was entered for Cn1c2ccccc2c(=O)c2c(O)cc3c(c21)C=CC1(CCCCC1)O3 ?
// result no

// query Could you kindly confirm the outcome this assay logged for CC(C)(Cl)C(Br)CC/C(=C/CCl)CBr.CC(C)(Cl)C(Br)CC/C(=C\CCl)CBr (stereo unspecified) ?
// result no

// query // param item: Brc1cc(CCOC2CCCCO2)c(-c2sccc2CCOC2CCCCO2)s1 (stereo unspecified) ; yields the recorded call
// result no

// query Please let me know the test result on file for COc1ccc2c(c1)C(=O)C1CC(=O)CCC21 (stereo unspecified) .
// result no

// query Outcome logged for CC(C)SC1SCC2C(=O)N(C)C3(CC3C)C(=O)OCC(NC(=O)c3nc4ccccc4cc3O)C(=O)NC(C)C(=O)N(C)C1C(=O)N(C)C1(CC1C)C(=O)OCC(NC(=O)c1nc3ccccc3cc1O)C(=O)NC(C)C(=O)N2C (stereo unspecified) in this assay:
// result yes

// query Name the outcome recorded for CCOC(=O)N1CCNCCN(C(=O)OCC)CCNCC1 in the assay.
// result no

// query Check the results log: what was the call for O=C(CBr)NCCc1c[nH]c2ccccc12 ?
// result no

// query What is the recorded call for this compound in the test? NS(=O)(=O)c1ccc(NC2=CC(=O)C(=O)c3ccccc32)cc1
// result no

Recorded values, source ChEMBL document CHEMBL1201862.
